# key: entry, value: viability, T/C
test system: 292921-168-R-J2-PDC KRAS tumor spheroid viability; assay: Anticancer human tumor 292921-168-R-J2-PDC patient-derived pancreatic carcinoma cell line growth inhibition [KRAS2]; details: second compound 10 µM; first compound 1 µM; active compounds read low; spheroids with HUVEC and MSC;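 note: drug exposure lasted seven days after spheroids formed for three days; percent of DMSO vehicle control viability which is 100%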
Give your result in % as a bare value.

Let me know recorded viability, T/C for Cn1nccc1Nc1nccc(-c2cc3c(s2)C(C)(C)N(CCN2CCOCC2)C3=O)n1 + C=CC(=O)N1CCN(c2nc(=O)n(-c3c(C)ccnc3C(C)C)c3nc(-c4c(O)cccc4F)c(F)cc23)C(C)C1 , thanks.
14.4

Provide one value: measured viability, T/C of COc1cc(Nc2ncc3c(n2)-c2ccc(Cl)cc2C(c2c(F)cccc2OC)=NC3)ccc1C(=O)O + COc1cc2nc(C)nc(NC(C)c3cc(N)cc(C(F)(F)F)c3)c2cc1OC1CCOC1
11.9

Supply viability, T/C value. Item: CC1OCC2(CCN(c3cnc(Sc4ccnc(N)c4Cl)c(N)n3)CC2)C1N (stereo not given) + COc1cc2nc(C)nc(NC(C)c3cc(N)cc(C(F)(F)F)c3)c2cc1OC1CCOC1
14.2

Supply measured viability, T/C of Cn1nccc1Nc1nccc(-c2cc3c(s2)C(C)(C)N(CCN2CCOCC2)C3=O)n1 + CNCc1ccccc1-c1csc(C(C)Nc2nc(C)nc3cc(OC)c(OC)cc23)c1 in your reply.
0.09

Answer with reported viability, T/C of CC1(C)CCC(CN2CCN(c3ccc(C(=O)NS(=O)(=O)c4ccc(NCC5CCOCC5)c([N+](=O)[O-])c4)c(Oc4cnc5[nH]ccc5c4)c3)CC2)=C(c2ccc(Cl)cc2)C1 + C=CC(=O)N1CCN(c2nc(=O)n(-c3c(C)ccnc3C(C)C)c3nc(-c4c(O)cccc4F)c(F)cc23)C(C)C1
20.5

// Input: CC(=O)OC12COC1CC(O)C1(C)C(=O)C(O)C3=C(C)C(OC(=O)C(O)C(NC(=O)OC(C)(C)C)c4ccccc4)CC(O)(C(OC(=O)c4ccccc4)C21)C3(C)C (stereo not given) + CC1OCC2(CCN(c3cnc(Sc4ccnc(N)c4Cl)c(N)n3)CC2)C1N . Output its viability, T/C only.
13.4

Entry COC(=O)c1ccc2c(C(=Nc3ccc(N(C)C(=O)CN4CCN(C)CC4)cc3)c3ccccc3)c(O)[nH]c2c1 + C=CC(=O)N1CCN(c2nc(=O)n(-c3c(C)ccnc3C(C)C)c3nc(-c4c(O)cccc4F)c(F)cc23)C(C)C1 needs its viability, T/C filled in; supply it.
19.2

Provide one value: measured viability, T/C of O=C(c1cc(Cc2n[nH]c(=O)c3ccccc23)ccc1F)N1CCN(C(=O)C2CC2)CC1 + CNCc1ccccc1-c1csc(C(C)Nc2nc(C)nc3cc(OC)c(OC)cc23)c1
0.11

Identify measured viability, T/C corresponding to Cn1nccc1Nc1nccc(-c2cc3c(s2)C(C)(C)N(CCN2CCOCC2)C3=O)n1 + CC1OCC2(CCN(c3cnc(Sc4ccnc(N)c4Cl)c(N)n3)CC2)C1N
8.12

Return viability, T/C for the following compound: COc1cc(Nc2ncc3c(n2)-c2ccc(Cl)cc2C(c2c(F)cccc2OC)=NC3)ccc1C(=O)O + CC1OCC2(CCN(c3cnc(Sc4ccnc(N)c4Cl)c(N)n3)CC2)C1N
15.7
